Listing of recorded Emax at 24 h by entry.
study_target: PXR (NR1I2) (Homo sapiens, UniProt O75469)
Sequence (O75469 whole entry): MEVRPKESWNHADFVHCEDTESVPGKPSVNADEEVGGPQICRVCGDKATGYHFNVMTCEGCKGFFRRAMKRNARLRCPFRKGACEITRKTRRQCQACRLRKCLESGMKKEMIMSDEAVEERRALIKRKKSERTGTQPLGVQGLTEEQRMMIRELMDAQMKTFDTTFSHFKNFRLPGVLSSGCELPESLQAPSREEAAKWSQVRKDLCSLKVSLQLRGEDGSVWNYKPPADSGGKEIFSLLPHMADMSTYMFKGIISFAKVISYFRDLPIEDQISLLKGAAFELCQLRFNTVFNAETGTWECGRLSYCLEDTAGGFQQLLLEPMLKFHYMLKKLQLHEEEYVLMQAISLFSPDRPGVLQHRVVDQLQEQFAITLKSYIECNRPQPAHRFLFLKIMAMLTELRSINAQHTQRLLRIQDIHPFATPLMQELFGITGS
test_summary: Agonist activity at PXR expressed in human HepG2 cells after 24 hrs by p3A4-luciferase reporter gene assay
settings: human, HepG2 cells expressing PXR

Example results:
{"record_smiles": "COc1cccc(-c2nc(SC)c3ccccc3n2)c1", "obs_value": "> 250%"}
{"record_smiles": "COc1cccc(-c2nc3ccccc3c(=S)[nH]2)c1", "obs_value": "165%"}

[ask] State measured Emax at 24 h of the compound "COc1cccc(-c2nc(OC)c3ccccc3n2)c1" with PXR (NR1I2) (Homo sapiens, UniProt O75469).
[reply] > 250%

----------
study_target: Vitamin D3 receptor (Homo sapiens)
Sequence (P11473 whole entry): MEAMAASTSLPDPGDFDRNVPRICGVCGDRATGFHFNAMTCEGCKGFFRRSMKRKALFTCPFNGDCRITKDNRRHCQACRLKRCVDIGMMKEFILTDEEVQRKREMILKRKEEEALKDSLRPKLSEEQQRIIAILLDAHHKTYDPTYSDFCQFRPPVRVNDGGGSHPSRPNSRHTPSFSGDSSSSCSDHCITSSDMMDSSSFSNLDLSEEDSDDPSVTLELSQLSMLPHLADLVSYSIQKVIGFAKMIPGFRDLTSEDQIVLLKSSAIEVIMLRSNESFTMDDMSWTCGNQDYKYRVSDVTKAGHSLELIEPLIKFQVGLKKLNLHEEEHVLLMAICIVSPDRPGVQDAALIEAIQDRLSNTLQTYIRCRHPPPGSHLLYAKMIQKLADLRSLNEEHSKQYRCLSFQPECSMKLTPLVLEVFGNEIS
test_summary: Agonist activity at VDR expressed in human HuH7 cells after 24 hrs by pDR3-luciferase reporter gene assay
endpoint_label: EC50 (µM)

[A] COc1cccc(-c2nc3ccccc3c(=S)[nH]2)c1
[B] COc1cccc(-c2nc(OC)c3ccccc3n2)c1
[ask] Which record shows the lower EC50: the first, A , or the second, B ? Respond using the label that marks the chosen record.
[reply] A

----------
study_target: Cytochrome P450 2D6 (Homo sapiens, UniProt P10635)
Sequence (P10635 whole entry): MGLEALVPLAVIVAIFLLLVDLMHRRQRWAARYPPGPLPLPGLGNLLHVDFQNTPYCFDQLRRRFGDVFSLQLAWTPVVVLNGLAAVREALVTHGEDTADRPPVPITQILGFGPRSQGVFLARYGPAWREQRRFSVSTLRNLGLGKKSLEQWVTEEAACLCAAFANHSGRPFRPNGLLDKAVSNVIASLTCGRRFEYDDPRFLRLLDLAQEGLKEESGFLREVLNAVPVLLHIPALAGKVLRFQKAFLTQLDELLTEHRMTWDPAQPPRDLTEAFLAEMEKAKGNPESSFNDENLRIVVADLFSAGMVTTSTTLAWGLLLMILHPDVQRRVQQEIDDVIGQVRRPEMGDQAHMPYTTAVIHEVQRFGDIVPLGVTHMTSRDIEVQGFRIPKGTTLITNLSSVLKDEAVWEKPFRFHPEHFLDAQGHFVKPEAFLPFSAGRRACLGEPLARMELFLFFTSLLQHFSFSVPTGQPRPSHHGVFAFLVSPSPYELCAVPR
test_summary: Inhibition of recombinant human CYP2D6 by P450-Glo luminescence assay
Assay type: ADME
settings: read-out: IC50
endpoint_label: pIC50
# reply with the number alone; pIC50 is -log10 of concentration in mol/L

[ask] Input "COc1cccc(-c2nc(SC)c3ccccc3n2)c1" , output reported pIC50.
[reply] 4.76

----------
study_target: UniProt:P35869
Sequence (P35869 whole entry): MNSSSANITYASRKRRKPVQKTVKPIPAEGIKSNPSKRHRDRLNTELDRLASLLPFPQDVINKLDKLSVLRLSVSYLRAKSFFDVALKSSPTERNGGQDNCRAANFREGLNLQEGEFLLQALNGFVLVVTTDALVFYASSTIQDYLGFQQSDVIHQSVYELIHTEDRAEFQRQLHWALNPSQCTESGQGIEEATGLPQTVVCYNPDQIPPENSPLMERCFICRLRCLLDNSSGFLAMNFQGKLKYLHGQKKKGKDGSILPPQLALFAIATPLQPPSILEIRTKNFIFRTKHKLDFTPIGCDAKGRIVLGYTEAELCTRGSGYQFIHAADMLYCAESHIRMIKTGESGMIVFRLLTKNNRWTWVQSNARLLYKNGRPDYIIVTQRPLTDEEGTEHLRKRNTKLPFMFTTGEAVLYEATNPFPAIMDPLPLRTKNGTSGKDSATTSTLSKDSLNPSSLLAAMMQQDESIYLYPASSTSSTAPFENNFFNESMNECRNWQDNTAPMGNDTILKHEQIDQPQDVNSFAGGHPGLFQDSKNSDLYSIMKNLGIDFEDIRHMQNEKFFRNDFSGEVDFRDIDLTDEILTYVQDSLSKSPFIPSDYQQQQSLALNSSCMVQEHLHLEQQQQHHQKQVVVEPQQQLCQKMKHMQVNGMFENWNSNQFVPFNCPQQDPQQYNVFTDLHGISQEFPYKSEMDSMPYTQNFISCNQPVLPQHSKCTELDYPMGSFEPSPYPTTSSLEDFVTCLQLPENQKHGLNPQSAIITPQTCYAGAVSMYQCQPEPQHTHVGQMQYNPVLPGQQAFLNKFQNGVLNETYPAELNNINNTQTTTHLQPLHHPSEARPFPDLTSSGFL
test_summary: Agonist activity at AHR expressed in human HepG2 cells after 24 hrs by pXRE-luciferase reporter gene assay
pEC50: −log10 of the molar value.
endpoint_label: pEC50

{"record_smiles": "Cc1ccc2cc3c(ccc4ccccc43)c3c2c1CC3", "pEC50": 6.31}

[P] COc1cccc(-c2nc(SC)c3ccccc3n2)c1
[Q] COc1cccc(-c2nc3ccccc3c(=S)[nH]2)c1
[R] COc1cccc(-c2nc(OC)c3ccccc3n2)c1
[ask] Rank order required: pEC50, descending. Field: ranking. Enter the labels in the order requested.
[reply] Q, P, R
